assay: NCI Yeast Anticancer Drug Screen. Data for the cln2 rad14 strain (AID 165);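 also: 0% = growth equal to vehicle treated cultures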; conditions: S. cerevisiae cln2 rad14 strain, at 50.0 µM (retest, dose inferred, filed as 5.0)
This is part of a sample that, as a whole, favours compounds with a hit. Of some 79,000 tested, about 15% had one in any assay. Active and inactive are the calls of the source. Rule as the data show it: active = growth inhibition above about 70%; inactive = the rest.
One label from this list, please: active, inactive

Consider the worked cases shown below.
| Compound | Discrete label |
| --- | --- |
| C[C@]12CC[C@H](OC(=O)COc3ccc(N(CCCl)CCCl)cc3)C[C@@H]1CC[C@@H]1[C@@H]2CC[C@]2(C)NC(=O)CC[C@@H]12 | inactive |
| C=CCOc1cc2c(ccc1=O)-c1c(cc(OC)c(OC)c1OC)CCC2NC(C)=O (centres undefined) | inactive |

Outcome logged for `C[C@]12CC/C(=N\NC(=O)c3ccncc3)C[C@@H]1CC[C@@H]1[C@@H]2CC[C@]2(C)[C@@H](O)CC[C@@H]12` in this assay: inactive

Outcome logged for `CC[CH2][Sn]([CH2]CC)([CH2]CC)[CH2]CCBr` in this assay: active

---

assay: NCI Yeast Anticancer Drug Screen. Data for the rad14 strain (AID 159);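 also: 0% = growth of vehicle-treated control cultures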; conditions: S. cerevisiae rad14 strain growth inhibition; at 33.0 µM
About 79,000 compounds went through this panel and 15% of them were active in at least one assay; those are over-represented in the sample as a whole. Calls of active or inactive are those of the source. Cut-off read from the data, not from the text of the source: active = growth inhibition above about 70%; inactive = the rest.
One label from this list, please: yes for active, no for inactive

| Compound | Discrete label |
| --- | --- |
| CC(=O)O/C(=C1\C[C@H]2[C@@H]3CC=C4C[C@@H](OC(C)=O)CC[C@]4(C)[C@H]3CC[C@]2(C)C1=O)C(F)(F)F | no |
| Oc1cccnc1[Se] | yes |
| O=Cc1ccc(C(F)(F)F)cc1.[C-]#[O+].[C-]#[O+].[C-]#[O+].[Cr] | no |
| C[C@]12CCC3[C@@H](CC[C@@H]4c5nonc5CC[C@]34C)C1CCC2=O (stereo partly specified) | yes |
| c1ccc(N=c2nc(N3CCOCC3)ss2)cc1 | yes |

Attention now turns to another entry.
Outcome logged for `Oc1cccc2nc3ccccc3nc12` in this assay: no

---

Listed below: growth inhibition values for each entry.
experiment: NCI Yeast Anticancer Drug Screen. Data for the sgs1 strain (AID 173);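 also: 0% = growth of vehicle-only control cultures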; settings: S. cerevisiae sgs1 mutant, at 33.0 µM, stronger effect = higher value
The panel holds about 79,000 compounds, 15% with a hit somewhere; the sample as a whole holds those more often.
The reply should contain only the number, in %.

Study these solved cases before continuing.
| Molecule | growth inhibition / % |
| --- | --- |
| O=[N+]([O-])c1ccc(-n2nc3ccc4c(no[n+]4[O-])c3[n+]2[O-])c([N+](=O)[O-])c1 | 4 |
| C[N+](C)(C)CC1CCCC(C[N+](C)(C)C)C1=O (centres undefined) | 64 |
| CCNC(=O)OCC1C2=C(C(=O)C(C)=C(N)C2=O)N2CC3C(N3C)C12OC (centres undefined) | 59 |

Now for a further molecule.
# molecule CC[C@@]1(O)C[C@H](OC2CC(N(C)C)C(O)C(C)O2)c2c(O)c3c(c(O)c2[C@H]1OC1CC(N(C)C)C(O)C(C)O1)C(=O)c1cccc(O)c1C3=O (some centres undefined) ; its growth inhibition = 18
